Listed here: items and their measured furin cleavage Z-score.
- target-or-test-system: furin, P09958;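 note: purified furin at 1:10 enzyme:substrate in 50 mM HEPES pH 7.5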
- Sequence (P09958 whole entry): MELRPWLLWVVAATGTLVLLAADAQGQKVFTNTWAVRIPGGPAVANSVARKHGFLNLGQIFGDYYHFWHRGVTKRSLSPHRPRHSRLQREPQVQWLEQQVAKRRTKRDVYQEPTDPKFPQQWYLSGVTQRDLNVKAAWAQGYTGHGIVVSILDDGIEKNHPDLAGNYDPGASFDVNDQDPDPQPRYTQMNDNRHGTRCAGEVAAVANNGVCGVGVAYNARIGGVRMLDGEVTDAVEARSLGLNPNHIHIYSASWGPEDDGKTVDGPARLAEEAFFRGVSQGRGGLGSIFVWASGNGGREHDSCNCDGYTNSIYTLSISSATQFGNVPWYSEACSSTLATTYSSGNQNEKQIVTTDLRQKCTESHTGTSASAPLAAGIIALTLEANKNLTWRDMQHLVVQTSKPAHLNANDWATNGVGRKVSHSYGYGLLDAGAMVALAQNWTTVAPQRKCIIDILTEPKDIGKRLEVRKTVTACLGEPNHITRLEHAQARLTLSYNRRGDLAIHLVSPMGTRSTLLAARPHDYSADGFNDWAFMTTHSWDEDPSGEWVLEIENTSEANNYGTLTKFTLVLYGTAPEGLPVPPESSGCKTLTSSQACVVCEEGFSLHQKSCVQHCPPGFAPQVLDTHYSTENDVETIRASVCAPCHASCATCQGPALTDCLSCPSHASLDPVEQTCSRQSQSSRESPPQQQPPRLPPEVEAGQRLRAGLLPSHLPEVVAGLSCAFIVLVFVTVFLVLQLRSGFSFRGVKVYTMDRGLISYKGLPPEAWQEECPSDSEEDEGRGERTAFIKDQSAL
- assay-comment: furin cleavage Z-score vs untreated control; higher = more cleavage, active = 3.5 or more, inactive = 1 or less, 8 variable residues between constant flanks
- conditions-used: 15 min
Some of the results follow. No count for the full screen is at hand.

>>> result("CAMALTLSPYAGNASASA [HC574]")
"-0.267 (inactive)"
>>> result("CAPRRRARSLAGNASASA [FS-2479]")
"12.2 (active)"
>>> result("CAAPQGSRSLAGNASASA [HC717]")
"-1.2 (inactive)"
>>> result("CAYHFRGRRSAGNASASA [FS-1438]")
"8.64 (active)"
>>> result("CARRRRSRSSAGNASASA [FS-3263]")
"9.52 (active)"
>>> result("CAVMCCSMSYAGNASASA [HC2006]")
"0.521 (inactive)"

Could you now look at the following sequence, please?
Given item CARRYRGNDSAGNASASA [FS-3072] , the value recorded as its furin cleavage Z-score is -0.858 (inactive)

Hey, just so you know, these numbers are from the supplement of paper PMC3545927.
